log10 TGI reference
test system: OVCAR-8 ovarian; assay: NCI tumour cell line growth inhibition, 48 h
Note: values are log10 of TGI expressed in µM.

Worked examples, 2 molecules total:
[
  {
    "Molecule": "c1ccc(-c2c(-c3cccs3)[nH]c(-c3cccs3)c2-c2ccccn2)nc1",
    "log10 TGI": 1.88
  },
  {
    "Molecule": "CNC(=O)c1c(F)cccc1Nc1nc(Nc2cc3c(cc2OC)CCN3C(=O)CN(C)C)nc2[nH]ccc12",
    "log10 TGI": 0.93
  }
]

Given CC(=O)c1ccccc1NC(=O)C(=O)C(C(=O)c1ccccc1-c1ccccc1)C1OC(=O)c2ccccc21 (configuration not stated) , state its recorded log10 TGI.
1.68

Given Cc1c2ccncc2c(C)c2c1[nH]c1ccc(Oc3ccccc3)cc12 , state its recorded log10 TGI.
0.54

Given Nc1cc2ncnn2c(SCC(=O)N/N=C/C(Br)=C\c2ccccc2)n1 , state its recorded log10 TGI.
1.72

Given COC(=O)c1ccc(C)cc1CC1Cc2cccc(C)c2C1=O (configuration not stated) , state its recorded log10 TGI.
1.53

Given CCN(CC)CCN1c2nc3ccccc3cc2Sc2cc3ccccc3nc21 , state its recorded log10 TGI.
0.91

Given Clc1cccc(CNc2c3ccccc3nc3ccccc23)c1 , state its recorded log10 TGI.
0.95

Given CC1=C(C(=O)Nc2ccc(F)c(Cl)c2)C(c2cccc(Oc3ccccc3)c2)NC(=S)N1 (configuration not stated) , state its recorded log10 TGI.
1.43

###

tested on: SK-MEL-5 melanoma; test: NCI tumour cell line growth inhibition, 48 h; in the data active = GI50 below about 0.43 µM; inactive = the rest
Please reply with one of these outcomes: TRUE for active, FALSE for inactive

[
  {
    "Compound": "OC1CCCC2CCC[N-]C12.OC1CCCC2CCC[N-]C12.[O]=[V][OH] (stereo unspecified)",
    "Label": "FALSE"
  },
  {
    "Compound": "COc1ccc(-c2cn(-c3ccc(OC)c(OC)c3)c(=O)[nH]2)cc1",
    "Label": "FALSE"
  },
  {
    "Compound": "CCN(CC)CCN1c2nc3ccccc3cc2Sc2cc3ccccc3nc21",
    "Label": "FALSE"
  },
  {
    "Compound": "O=C1NC2(CCCCC2)C(=O)N1CCN(CCCl)CCCl",
    "Label": "FALSE"
  },
  {
    "Compound": "Clc1ccc2c(c1)N(C1CCCN(Cc3ccccc3)C1)c1ccccc1S2 (stereo unspecified)",
    "Label": "FALSE"
  }
]

For COc1cc2c3c(n(CCCNCCCNCCN)c(=O)c2cc1OC)-c1cc2c(cc1C3=O)OCO2 , what call appears in the results of this test?
FALSE

For C[N+](C)(C)c1cc[c]([Sn]([c]2ccc([N+](C)(C)C)cc2)([c]2ccc([N+](C)(C)C)cc2)[c]2ccc([N+](C)(C)C)cc2)cc1 , what call appears in the results of this test?
FALSE

###

TGI reference
system: UACC-62 melanoma; test: NCI tumour cell line growth inhibition, 48 h

[
  {
    "Compound": "Cc1ccc(S(=O)(=O)N/N=C2\\CCC3(O)CC2(C)CCC2C3CC2(C)C)cc1 (stereo unspecified)",
    "TGI": "> 100 µM"
  },
  {
    "Compound": "CCC(=O)N1C/C(=C/c2ccc(Br)cc2)C(=O)/C(=C/c2ccc(Br)cc2)C1",
    "TGI": "2.06 µM"
  },
  {
    "Compound": "COS(C)(=O)=O",
    "TGI": "> 2 µM"
  }
]

Given C(=C\C(Sc1ccccc1)c1ccccc1)/NNC1=NC(c2ccccc2)C(c2ccccc2)=NN1 (stereo unspecified) , state its recorded TGI.
> 100 µM

Given c1ccc(Oc2ccc(Nc3ncc(-c4ccccc4)o3)cc2)cc1 , state its recorded TGI.
> 25 µM

Given COc1ccc(/C=C/C(=O)c2c(-c3ccccc3)nn(C)c(=O)c2N2CCOCC2)cc1 , state its recorded TGI.
> 100 µM

Given O=C(Nc1ccc(Cl)cc1)c1cc([N+](=O)[O-])ccc1O , state its recorded TGI.
8.17 µM

Given CC(C)(C)[C@H]1CO[C@]2(c3ccccc3)[C@@H]3C[C@@H]3C(=O)N12 , state its recorded TGI.
> 100 µM

Given Cc1ccc(N=C2N=C(N3CC(C)OC(C)C3)c3ccccc32)cc1 (stereo unspecified) , state its recorded TGI.
> 100 µM

Given COc1ccc(-c2oc3cc(OC(C)=O)cc(OC(C)=O)c3c(=O)c2OC)cc1 , state its recorded TGI.
22.7 µM

Given CC(=O)Nc1ccc(S(=O)(=O)N=S(C)C)cc1 , state its recorded TGI.
> 100 µM

Given OC1CCCC2CCC[N-]C12.OC1CCCC2CCC[N-]C12.[O]=[V][OH] (stereo unspecified) , state its recorded TGI.
24.7 µM

Given COc1ccc(OC)c(/C=C2\CCc3ccccc3C2=O)c1 , state its recorded TGI.
5.39 µM

Given C=CCNC1=C2C[C@@H](C)C[C@H](OC)[C@H](O)[C@@H](C)/C=C(\C)[C@H](OC(N)=O)[C@@H](OC)/C=C\C=C(/C)C(=O)NC(=CC1=O)C2=O , state its recorded TGI.
4.8 µM

Given CC1(C)C(=O)C(C)(C)C1=NNC(N)=S , state its recorded TGI.
> 100 µM

Given Cc1cn(Cc2cccc(C3=NCCCN3)c2)c(=O)n(Cc2cccc(C3=NCCCN3)c2)c1=O , state its recorded TGI.
> 100 µM

Given Cc1ccc(Cl)c(NS(=O)(=O)c2ccc(-c3cnc(C4CC4)o3)cc2)c1 , state its recorded TGI.
34.8 µM

Given O=C1Cc2cc(CCn3cncn3)c(Cl)cc2N1 , state its recorded TGI.
> 100 µM

Given Fc1ccc(-c2nn3ccccc3c2-c2ccncc2)cc1 , state its recorded TGI.
> 25 µM

Given COc1ccc(N2C(=O)/C(=C\c3ccccc3)SC2c2cc(OC)c(OC)c(OC)c2)cc1 (stereo unspecified) , state its recorded TGI.
> 100 µM

Given CN(C)Cc1ccc(NC(=O)c2cncc(C#Cc3cnc(N)c4ncccc34)c2)cc1F , state its recorded TGI.
3.53 µM

###

GI50 reference
tested on: KM12 colon; test: NCI tumour cell line growth inhibition, 48 h

[
  {
    "Compound string": "Cc1nc2sc3c(N)ncnc3c2c(C)c1C",
    "Property measured": "GI50",
    "Reading": "> 25 µM"
  },
  {
    "Compound string": "O=C(/C=C/c1ccccn1)c1ccc(OCc2nnc(-c3ccc(Cl)cc3)o2)cc1",
    "Property measured": "GI50",
    "Reading": "1.48 µM"
  },
  {
    "Compound string": "Cn1cc(C2=C(c3cn(CCCN)c4ccccc34)C(=O)NC2=O)c2ccccc21",
    "Property measured": "GI50",
    "Reading": "5.44 µM"
  },
  {
    "Compound string": "CN(C)Cc1ccc(NC(=O)c2cncc(C#Cc3cnc(N)c4ncccc34)c2)cc1F",
    "Property measured": "GI50",
    "Reading": "1.7 µM"
  }
]

Turning to the following compound.
Given C[N+](C)(C)c1cc[c]([Sn]([c]2ccc([N+](C)(C)C)cc2)([c]2ccc([N+](C)(C)C)cc2)[c]2ccc([N+](C)(C)C)cc2)cc1 , state its recorded GI50.
> 100 µM

###

tested on: UACC-257 melanoma; experiment: NCI tumour cell line growth inhibition, 48 h
Property measured: TGI

Worked examples, 5 compounds total:
[
  {
    "Compound": "O=c1[nH][nH]c(=O)n1/N=C/c1ccccc1",
    "TGI": "> 100 µM"
  },
  {
    "Compound": "Oc1ccc2ccccc2c1C=NCc1c(O)ccc2ccccc12",
    "TGI": "> 100 µM"
  },
  {
    "Compound": "O=[N+]([O-])c1ccc2sc(/C=N/c3ccccn3)cc2c1",
    "TGI": "> 100 µM"
  },
  {
    "Compound": "COC(=O)Cc1c([C@H]2[C@H](CC(=O)OC)c3ccccc3N2S(=O)(=O)c2ccc(C)cc2)[nH]c2ccccc12",
    "TGI": "> 100 µM"
  },
  {
    "Compound": "N=C(N)c1ccc(-c2ccc(-c3ccc4ccccc4c3)s2)s1",
    "TGI": "31.2 µM"
  }
]

Given Cn1cc(C2=C(c3cn(CCCN)c4ccccc34)C(=O)NC2=O)c2ccccc21 , state its recorded TGI.
9.05 µM

Given CC1C[C@]2(C[C@@H](C)C(=O)O2)OC2CC3(C)C4CCC5C(C)(C)OC(=O)CC[C@@]56C[C@@]46CC[C@]3(C)C12 (some centres undefined) , state its recorded TGI.
> 100 µM

Given NC(Cc1c[nH]c2ccc([N+](=O)[O-])cc12)C(=O)O (centres undefined) , state its recorded TGI.
> 100 µM

Given COC1C=COC2(C)Oc3c(C)c(O)c4c(O)c(c(C5SCCS5)c(O)c4c3C2=O)NC(=O)/C(C)=C\C=CC(C)C(O)C(C)C(O)C(C)C(OC(C)=O)C1C (centres undefined) , state its recorded TGI.
17.8 µM
